System: Aspergillus fumigatus
Assay: Antifungal activity against Aspergillus fumigatus ATCC 90906 after 68 to 72 hrs
Format: functional, organism-based
readout-label: pIC50
The read-out pIC50 is expressed as -log10 of concentration in moles per litre.

C[C@@H]1[C@H](O)[C@@H](C)/C=C/C=C/C=C/C=C/C=C/C=C/C=C/[C@H](O[C@@H]2O[C@H](C)[C@@H](O)[C@H](N)[C@@H]2O)C[C@@H]2O[C@](O)(C[C@@H](O)C[C@@H](O)[C@H](O)CC[C@@H](O)C[C@@H](O)CC(=O)O[C@H]1C)C[C@H](O)[C@H]2C(=O)O = 5.80

Now turn to the next molecule.
Looking for the measured pIC50 of `CC(C)=CCc1c(O)ccc(C(=O)[C@H]2[C@H](c3c(O)cc(-c4cc5ccc(O)cc5o4)cc3O)C=C(C)C[C@H]2c2ccc(O)cc2O)c1O` , can you help? 5.00
